# Test Target: human P2X7 receptor (Homo sapiens, UniProt Q99572, R270H/Y155H)
# Test Method Notes: Evaluation of human P2X7 receptor inhibitory activity (Yo-Pro uptake, BzATP stimulation, FLIPR TETRA)
# Type: cell-based
# Test Parameters: 1321N1 cells stably expressing human P2X7 receptor; BzATP stimulation, Yo-Pro uptake; read-out: IC50 (antagonistic activity for the human P2X7 receptor)
Could you mark each record Criterion met if its IC50 falls strictly under 20 nM, and Criterion not met if it equals or exceeds it?

Given "Cc1cc(Nc2nc(=O)c(F)cn2Cc2cc(F)c(F)c(F)c2)c(C)nc1OC(F)F" , is recorded IC50 strictly lower than 20 nM?
Criterion met

I'd appreciate it if you could check whether "COc1cn(Cc2cc(F)cc(F)c2)c(Nc2cc3c(cc2C)OCC3)nc1=O" has IC50 smaller than 20 nM.
Criterion met

Hello, is IC50 of the following compound strictly smaller than 20 nM? COc1cn(Cc2ccccc2)c(NC2C[C@@H]3CC[C@H]2C3)nc1=O (stereo partly shown)
Criterion not met

Given "COc1cn(Cc2ccccc2)c(Nc2ccccc2SC)nc1=O" , is recorded IC50 strictly lower than 20 nM?
Criterion not met

Strictly below 20 nM: is that where IC50 of "COc1cn(Cc2cccc(Cl)c2)c(Nc2cccc3[nH]c(C)cc23)nc1=O" sits?
Criterion not met

IC50 under 20 nM? Item: "COc1cnc(Nc2cc3sc(C)nc3cc2C)n(Cc2ccc(F)c(Cl)c2)c1=O"
Criterion not met

Next:
API: query returns whether the compound falls strictly under 20 nM in IC50. Query: "Cc1cc(C)c(Nc2nc(=O)c(C(N)=O)cn2Cc2ccccc2)cc1C"
Criterion met

Threshold test, IC50 < 20 nM: "COc1cn(Cc2ccsc2)c(Nc2cc(C)c(C)cc2C)nc1=O"
Criterion met

Please indicate whether the reported IC50 of "COc1cc(Nc2nc(=O)c(F)cn2Cc2cc(F)cc(F)c2)c(C)cc1F" is strictly below 20 nM.
Criterion met

In plain terms, does "COc1cn(Cc2cc(F)cc(F)c2)c(Nc2cc(C)c(OC(F)(F)F)cc2C)nc1=O" come in under 20 nM for IC50?
Criterion met

Criterion: IC50 strictly below 20 nM. Is it met by "COc1cn(Cc2ccc(F)c(Cl)c2)c(Nc2c(C)cc3oc(C)cc3c2C)nc1=O" ?
Criterion not met

* * *

What IC50 was measured for each of the following?
# Test Target: human P2X7 receptor (Homo sapiens, UniProt Q99572, R270H/Y155H)
# Test Method Notes: Evaluation of human P2X7 receptor inhibitory activity (Yo-Pro uptake, BzATP stimulation, FLIPR TETRA)
# Assay type: cell-based
# Test Parameters: 1321N1 cells stably expressing human P2X7 receptor; BzATP stimulation, Yo-Pro uptake; read-out: IC50 (antagonistic activity for the human P2X7 receptor), class symbol

Give a short answer stating reported IC50 for COc1cn(Cc2ccccc2)c(Nc2cccc(Oc3ccccc3)c2C)nc1=O [Compound I-0138] .
500 to 1000 nM

// Input: COCCNC(=O)c1cn(Cc2ccccc2)c(Nc2cccc(Cl)c2C)nc1=O [Compound I-0076] . Output its IC50 only.
100 to 500 nM

Specify reported IC50 for the compound shown: COc1cn(Cc2cc(F)c(F)c(F)c2)c(Nc2cc(C)ccc2C)nc1=O [Compound I-0571]
< 10 nM

Query IC50 for COc1cn(Cc2ccc(Cl)c(Cl)c2)c(Nc2cccc(Cl)c2C)nc1=O [Compound I-0296]
10 to 100 nM

# return recorded IC50 for input COc1cn(Cc2ccc(F)c(Cl)c2)c(Nc2cc(CO)c(C)cc2C)nc1=O [Compound I-0247]
< 10 nM

For every record below, what is its IC50?
1. CCOc1cc(C)c(Nc2nc(=O)c(OC)cn2Cc2ccccc2)cc1C [Compound I-0206]
2. COc1cc(C)cc(Nc2nc(=O)c(OC)cn2Cc2cc(F)cc(Cl)c2)c1C [Compound I-0395]

1: 10 to 100 nM; 2: < 10 nM

* * *

# Test Target: human P2X7 receptor (Homo sapiens, UniProt Q99572, R270H/Y155H)
# Test Method Notes: Evaluation of human P2X7 receptor inhibitory activity (Yo-Pro uptake, BzATP stimulation, FLIPR TETRA)
# Assay type: cell-based
# Test Parameters: antagonistic activity for the human P2X7 receptor; read-out: IC50
pIC50: −log10 of the molar value.
Property Measured: pIC50

Sample answers from the record:
Tell us which pIC50 value is on record for COc1cc(C)c(Nc2nc(=O)c(F)cn2Cc2cc(F)c(F)c(F)c2)cc1C [Compound I-1180]
> 8.00

For COc1cn(Cc2cc(F)cc(F)c2)c(Nc2ccc(OC(F)(F)F)cc2C)nc1=O [Compound I-0629] , write its pIC50.
7.00 to 8.00

Using known records, supply pIC50 for Cc1cc2c(cc1Nc1nc(=O)c(F)cn1Cc1ccc(F)c(Cl)c1)COC2 [Compound I-1026]
> 8.00

Fill in reported pIC50 for this entry: COc1cc(Nc2nc(=O)c(F)cn2Cc2ccc(F)c(F)c2)c(C)cc1F [Compound I-1052]
> 8.00

Consider the additional molecule presented here.
Please report pIC50 for the following molecule: Cc1cc(OC(F)F)c(C)cc1Nc1nc(=O)c(F)cn1Cc1ccc(F)c(F)c1 [Compound I-0835]
> 8.00

* * *

# Test Target: human P2X7 receptor (Homo sapiens, UniProt Q99572, R270H/Y155H)
# Test Method Notes: Evaluation of human P2X7 receptor inhibitory activity (Yo-Pro uptake, BzATP stimulation, FLIPR TETRA)
# Assay type: cell-based
# Test Parameters: 1321N1 cells stably expressing human P2X7 receptor; BzATP stimulation, Yo-Pro uptake; read-out: IC50 (antagonistic activity for the human P2X7 receptor), class symbol
Property Measured: IC50

Previously resolved entries follow.
Input "COc1cn(Cc2ccc(F)c(Cl)c2)c(Nc2cc(C)c(F)cc2C)nc1=O" , output reported IC50.
< 10 nM

Provide measured IC50 value, entry: "COc1cn(Cc2ccc(F)c(F)c2)c(Nc2ccc(OC(C)C)cc2C)nc1=O"
10 to 100 nM

Input "COc1cn(Cc2ccccc2)c(Nc2ccc(C)cc2C)nc1=O" , output reported IC50.
10 to 100 nM

Batch of 4 compounds: report IC50 for each.
1. COc1cccc(Nc2nc(=O)c(OC)cn2Cc2cc(F)c(F)c(F)c2)c1C
2. COc1cn(Cc2ccccc2)c(Nc2cccc3[nH]c(C)cc23)nc1=O
3. COc1cn(Cc2ccc(F)cc2)c(Nc2ccc(C)cc2C)nc1=O
4. COc1cn(Cc2cc(F)cc(F)c2)c(Nc2cccc(OC(F)F)c2C)nc1=O

1: < 10 nM; 2: 10 to 100 nM; 3: 10 to 100 nM; 4: < 10 nM

* * *

# Test Target: human P2X7 receptor (Homo sapiens, UniProt Q99572, R270H/Y155H)
# Test Method Notes: Evaluation of human P2X7 receptor inhibitory activity (Yo-Pro uptake, BzATP stimulation, FLIPR TETRA)
# Assay type: cell-based
# Test Parameters: antagonistic activity for the human P2X7 receptor; read-out: IC50
pIC50: −log10 of the molar value.
Property Measured: pIC50

Dear colleague, please send me the reported pIC50 for "Cc1cc(CO)ccc1Nc1nc(=O)c(F)cn1Cc1cc(F)c(F)c(F)c1" when you can.
> 8.00

Give me pIC50 for each of these compounds, listed below.
1. COc1ccc(Nc2nc(=O)cc(C)n2Cc2cc(F)c(F)c(F)c2)c(C)c1
2. COc1cccc(Nc2nc(=O)c(OC)cn2Cc2ccc(F)cc2)c1C
3. COc1cn(Cc2cc(F)c(F)c(F)c2)c(Nc2cc(N3CCCC3=O)ccc2C)nc1=O

["> 8.00", "> 8.00", "7.00 to 8.00"]

* * *

# Test Target: human P2X7 receptor (Homo sapiens, UniProt Q99572, R270H/Y155H)
# Test Method Notes: Evaluation of human P2X7 receptor inhibitory activity (Yo-Pro uptake, BzATP stimulation, FLIPR TETRA)
# Assay type: cell-based
# Test Parameters: 1321N1 cells stably expressing human P2X7 receptor; BzATP stimulation, Yo-Pro uptake; read-out: IC50 (antagonistic activity for the human P2X7 receptor), class symbol
Property Measured: IC50

Solved entries (count: 4):
Tell me IC50 reported for CCOc1cc(C)c(Nc2nc(=O)c(OC)cn2Cc2cccc(Cl)c2)cc1C [Compound I-0259]
< 10 nM

Give the reported IC50 for this compound. COc1cn(Cc2cccc(Cl)c2)c(Nc2cc3c(cc2C)OCCO3)nc1=O [Compound I-0290]
10 to 100 nM

State, in one line, measured IC50 of COc1cn(Cc2ccc(F)cc2F)c(Nc2cccc(Cl)c2C)nc1=O [Compound I-0329]
10 to 100 nM

Give the reported IC50 for this compound. COc1cn(Cc2cccc(Cl)c2)c(Nc2cc(C)c(Cl)cc2C)nc1=O [Compound I-0172]
10 to 100 nM

Please look at the following compound next.
Using the record for COc1cn(Cc2ccccc2)c(NC2CCc3ccccc32)nc1=O (centres unmarked) [Compound I-0073] , state its measured IC50.
500 to 1000 nM

Cited source: patent US10774051B2
